Target: NEK3 (human) (UniProt P51956)
Sequence (P51956 whole entry, looked up): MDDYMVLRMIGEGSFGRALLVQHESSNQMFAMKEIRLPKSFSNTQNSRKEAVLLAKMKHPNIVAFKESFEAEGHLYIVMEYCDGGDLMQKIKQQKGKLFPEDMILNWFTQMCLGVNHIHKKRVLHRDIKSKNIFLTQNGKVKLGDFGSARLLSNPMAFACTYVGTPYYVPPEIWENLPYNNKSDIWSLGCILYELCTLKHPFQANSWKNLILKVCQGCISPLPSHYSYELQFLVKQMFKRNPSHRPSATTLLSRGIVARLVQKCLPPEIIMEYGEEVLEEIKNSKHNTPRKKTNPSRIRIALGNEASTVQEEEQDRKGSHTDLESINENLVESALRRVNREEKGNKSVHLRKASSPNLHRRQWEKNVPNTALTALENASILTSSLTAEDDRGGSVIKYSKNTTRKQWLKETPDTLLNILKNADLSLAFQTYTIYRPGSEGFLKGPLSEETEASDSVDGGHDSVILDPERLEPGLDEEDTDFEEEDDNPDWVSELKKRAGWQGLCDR
Experiment: radiometric filter-binding kinase assay, Kinase HotSpot
Settings: compound 0.5 µM; ATP 10 µM
quantity: residual activity (%)

1. CC(C)[C@H](CO)Nc1nc(Nc2cccc(Cl)c2)c2ncn(C(C)C)c2n1 | 94.2
2. O=C(NC(NC(=S)Nc1ccc(F)c([N+](=O)[O-])c1)C(Cl)(Cl)Cl)C(c1ccccc1)c1ccccc1 (configuration not stated) | 96.2
3. C#Cc1cccc(Nc2ncnc3cc(OCCOC)c(OCCOC)cc23)c1 | 95.6
4. COc1cc2nccc(Oc3ccc(NC(=S)NC(=O)c4ccccc4C)cc3)c2cc1OC | 99.6
5. COc1cc2ncnc(Nc3ccc(F)c(Cl)c3)c2cc1OCCCN1CCOCC1 | 94.4
6. CC(C)(C)c1nc2c3ccc(F)cc3c3c(=O)[nH]ccc3c2[nH]1 | 74.4
7. CSc1nc(-c2ccc(F)cc2)c(-c2ccnc(NC(C)c3ccccc3)c2)[nH]1 (configuration not stated) | 94.7
8. CCCNC(=O)Nc1ccc(Oc2ncnc3cc(OC)c(OC)cc23)cc1Cl | 93.8
9. O=C1Cc2c([nH]c3ccc([N+](=O)[O-])cc23)-c2ccccc2N1 | 108
10. Oc1ccc(-c2nc(-c3ccc(F)cc3)c(-c3ccncc3)[nH]2)cc1 | 99.3
11. COc1ccc(-c2cnc3c(-c4ccsc4)cnn3c2)cc1 | 87.7
12. NC(=O)c1ccc(N(C(N)=O)c2c(F)cccc2F)nc1-c1ccc(F)cc1F | 96
13. O=C(Nc1ccc(Cl)cc1)c1ccccc1NCc1ccncc1 | 90.5
14. O=c1cc(-c2cccc3c2Sc2ccccc2S3)oc(N2CCOCC2)c1 | 102
15. Nc1nc(Nc2ccc(S(N)(=O)=O)cc2)nn1C(=O)c1c(F)cccc1F | 92.6
16. Cc1ccc(NC(=O)c2ccc(CN3CCN(C)CC3)cc2)cc1Nc1nc(-c2cccnc2)cs1 | 99.4
17. CC(C)n1cnc2c(Nc3cccc(Cl)c3)nc(NCCO)nc21 | 92.6
18. CS(=O)c1ccc(-c2nc(-c3ccc(F)cc3)c(-c3ccncc3)[nH]2)cc1 (configuration not stated) | 92.2
19. O=C1Nc2ccccc2/C1=C\c1c(Cl)[nH]c2ccccc12 | 91.2
20. CCN1/C(=C/C(C)=O)Sc2ccc(OC)cc21 | 82.5
21. Clc1ccc(Nc2nnc(Cc3ccncc3)c3ccccc23)cc1 | 94.1
22. Nc1n[nH]c2nnc(-c3c(-c4ccccc4)nn4ccccc34)cc12 | 82.7

Provenance of the data: the kinase profiling compilation of Christmann-Franck et al. (2016)
